Cited source for all entries: ChEMBL document CHEMBL4350975

Assay Name: Cytotoxicity against human HepG2.2.15 cells assessed as cell viability measured after 72 hrs by MTT assay
Type: cell-based, HepG2 2.2.15
Parameter Measured: CC50 at 72 h

These recorded examples may help you get a feel for the data.
>>> meas_value("COc1ccccc1CSc1nc2ccc(Cl)cc2c(=O)n1Cc1cccs1")
"> 100 µM"
>>> meas_value("CCN(CC)CCOc1ccc2nc(SCc3cc(C(C)=O)ccc3OC)n(Cc3cccs3)c(=O)c2c1")
"8.76 µM"
>>> meas_value("COc1ccc(C(C)=O)cc1CSc1nc2ccc(O)cc2c(=O)n1Cc1cccs1")
"> 100 µM"
>>> meas_value("COc1ccccc1CSc1nc2ccc(I)cc2c(=O)n1Cc1cccs1")
"> 100 µM"

Note: attention shifts to another entry.
Ask: Record request: CC50 at 72 h value, item COc1ccc(C(C)=O)cc1CSc1nc2ccc(I)cc2c(=O)n1Cc1cccs1
Result: 81.1 µM
